# Test system: HSV-1
# ASSAY NAME: HSV antiviral (ELISA) assay in Vero cells
# Type: cell-based, herpes simplex virus type 1
# CONDITIONS: Human alphaherpesvirus 1; HSV-1 in Vero cells; read-out: IC50 (ug/ml) HSV
# Protocol: HSV antiviral (ELISA) assay Vero cells (ATCC #CCL-81) are plated on 96-well tissue culture plates at 3.5x10^4 cells per 100µl tissue culture DMEM (Dulbecco's modified Eagle media) supplemented with 2% fetal bovine serum (FBS) in each well. […] Antiviral activity (IC50) of the test compound is determined by comparing the flourescence obtained in absence of compound to that obtained in the presence of compound.
MEASURE: IC50 (µg/mL)
Form entry: value (µg/mL) — number only.

>>> print(df.to_string())
                                   molecule  measure  result
0  COc1cc(NC(=S)NC(C)c2ccc(F)cc2)ccc1NC(=O)c1ccccc1F (centres unmarked)     IC50     3.9
1  COc1cc(C)c(Cl)cc1NC(=S)Nc1ccc(NC(=O)c2ccccc2F)c(C)c1     IC50     0.2
2  COc1cc(NC(=O)c2ccccc2F)ccc1NC(=S)Nc1ccc(C)c(Cl)c1     IC50     0.2

input: Which IC50 reading was recorded for the molecule CC(NC(=S)Nc1ccc(NC(=O)c2ccccc2F)c(C(F)(F)F)c1)c1ccc(Br)cc1 (centres unmarked) ?
output: 3.1

input: Which IC50 reading was recorded for the molecule `COc1cc(NC(=O)c2ccccc2F)ccc1NC(=S)Nc1ccc(SC)c(Cl)c1` ?
output: 0.2

input: Which IC50 reading was recorded for the molecule `O=C(Nc1ccc(NC(=S)NNc2cccc(Cl)c2)cc1)c1ccccc1F` ?
output: 1

input: Which IC50 reading was recorded for the molecule CC(NC(=S)Nc1ccc(NC(=O)c2nccc3ccccc23)c(C(F)(F)F)c1)c1ccc(F)cc1 (centres unmarked) ?
output: 1.9

input: Which IC50 reading was recorded for the molecule CC(NC(=S)Nc1ccc(NC(=O)c2ccccc2F)c(Cl)c1)c1ccc(C#N)cc1 (centres unmarked) ?
output: 7.2

input: Which IC50 reading was recorded for the molecule `COc1cc(OC)c(NC(=S)Nc2ccc(NC(=O)c3ccccc3F)c(C)c2)cc1Cl` ?
output: 2

====

Documented IC50 across a set of compounds
# Test system: HSV-1
# ASSAY NAME: HSV antiviral (ELISA) assay in Vero cells
# Format: cell-based, herpes simplex virus type 1
# CONDITIONS: Human alphaherpesvirus 1; HSV-1 in Vero cells; read-out: IC50 (ug/ml) HSV

For orientation, consider the following solved cases.
>>> df
                                   compound      result
0  CC(NC(=S)Nc1ccc(NC(=O)c2ccccc2F)c(C#N)c1)c1ccc(Br)cc1 (centres unmarked) [Example 1041]  > 10 µg/mL
1  CC(NC(=S)Nc1ccc(NC(=O)c2cc3ccccc3o2)c(C#N)c1)c1ccc(F)cc1 (centres unmarked) [Example 1070]   4.1 µg/mL
2  CCCCOc1cc(NC(=S)NC(C)c2ccc(C#N)cc2)ccc1NC(=O)c1ccccc1F (centres unmarked) [Example 1056]  > 10 µg/mL
3  CC(NC(=S)Nc1ccc(NC(=O)c2ccccc2F)c(N(C)C)c1)c1ccc(F)cc1 (centres unmarked) [Example 1049]     8 µg/mL

Let us move to another entry and its IC50.
input: Which IC50 reading was recorded for the compound COc1cc(OC)c(NC(=S)Nc2ccc(NC(=O)c3ccccc3F)c(C#N)c2)cc1Cl [Example 277] ?
output: > 10 µg/mL

====

# Tested on: HCMV recombinant mutant virus
# ASSAY NAME: microbe, parasite or virus in culture
# Format: cell-based, human cytomegalovirus
# CONDITIONS: Human betaherpesvirus 5, read-out: IC50 (ug/ml) HCMV
Documented IC50 across a set of compounds
Form entry: value (µg/mL) — number only.

>>> print(df.to_string())
                                   compound  measure  readout_units  result
0  CC(NC(=S)Nc1ccc(NC(=O)c2ccccc2F)c(OCC#N)c1)c1ccc(F)cc1 (stereo not shown)     IC50          µg/mL       6
1  CC(NC(=S)Nc1ccc(NC(=O)c2ccccc2F)c(C(F)(F)F)c1)c1ccc(Br)cc1 (stereo not shown)     IC50          µg/mL     2.3
2  CC(NC(=S)Nc1ccc(NC(=O)c2ccccc2F)c(C(F)(F)F)c1)c1ccc(F)cc1 (stereo not shown)     IC50          µg/mL     2.6
3  COc1cc(OC)c(NC(=S)Nc2ccc(NC(=O)c3ccccc3F)cc2OC)cc1Cl     IC50          µg/mL     1.5
4  O=C(Nc1ccc(NC(=S)NNc2cccc(Cl)c2)cc1)c1ccccc1F     IC50          µg/mL     8.5

input: // lookup IC50 | system=HCMV recombinant mutant virus | key= CC(NC(=S)Nc1ccc(NC(=O)c2nccc3ccccc23)c(C(F)(F)F)c1)c1ccc(F)cc1 (stereo not shown)
output: 1.8

====

# Test system: HSV-1
# ASSAY NAME: HSV antiviral (ELISA) assay in Vero cells
# Assay type: cell-based, herpes simplex virus type 1
# CONDITIONS: Human alphaherpesvirus 1; HSV-1 in Vero cells; read-out: IC50 (ug/ml) HSV
Label 1 when IC50 is strictly below 4 µg/mL; at or above that, label 0.

>>> print(df.to_string())
                                   molecule  classification
0  CC(NC(=S)Nc1ccc(NC(=O)c2ccccc2F)c(C(F)(F)F)c1)c1cc2ccccc2o1 (centres unmarked)               1
1  COc1cc(OC)c(NC(=S)Nc2c(Cl)cc(NC(=O)c3ccccc3F)cc2Cl)cc1Cl               1
2  COc1cc(NC(=O)c2ccccc2F)ccc1NC(=S)Nc1cc(Cl)c(C)cc1OC               1
3  COc1cc(OC)c(NC(=S)Nc2ccc(NC(=O)c3ccccc3F)c(C(=O)Nc3ccccc3)c2)cc1Cl               0
4  COc1cc(OC)c(NC(=S)Nc2ccc(NC(=O)c3c(F)cccc3F)cc2C)cc1Cl               1

input: Strictly below 4 µg/mL: is that where IC50 of CC(NC(=S)Nc1ccc(NC(=O)c2ccccc2F)c(OCC#N)c1)c1ccc(F)cc1 (centres unmarked) sits?
output: 0

input: Strictly below 4 µg/mL: is that where IC50 of CC(NC(=S)Nc1ccc(NC(=O)c2ccccc2F)c(C#N)c1)c1ccc(C#N)cc1 (centres unmarked) sits?
output: 0

input: Strictly below 4 µg/mL: is that where IC50 of CC(NC(=S)Nc1ccc(NC(=O)c2ccccc2F)c(Cl)c1)c1ccc(F)cc1 (centres unmarked) sits?
output: 1

====

# Test system: HCMV recombinant mutant virus
# ASSAY NAME: microbe, parasite or virus in culture
# Format: cell-based, human cytomegalovirus
# CONDITIONS: Human betaherpesvirus 5, read-out: IC50 (ug/ml) HCMV
Categorize each record by its IC50 using low band = under 2 µg/mL, middle band = from 2 µg/mL up to 4 µg/mL, high band = 4 µg/mL and over

# example entries with known answers
>>> print(df.to_string())
                                   compound                 assayed_target  classification
0  O=C(Nc1ccc(NC(=S)Nc2ccc(NC(=O)c3ccccc3F)cc2)cc1Cl)c1ccccc1  HCMV recombinant mutant virus     middle band
1  CC(NC(=S)Nc1ccc(NC(=O)c2cc3ccccc3cn2)c(C#N)c1)c1ccc(F)cc1 (stereo not shown)  HCMV recombinant mutant virus       high band
2  COc1cc(NC(=O)c2ccccc2F)ccc1NC(=S)Nc1ccc(SC)c(Cl)c1  HCMV recombinant mutant virus       high band
3  Cc1cc(NC(=S)NC(C)c2ccc(F)cc2)ccc1NC(=O)c1ccccc1F (stereo not shown)  HCMV recombinant mutant virus        low band
4  CCOc1cc(NC(=S)NC(C)c2ccc(C#N)cc2)ccc1NC(=O)c1ccccc1F (stereo not shown)  HCMV recombinant mutant virus       high band

input: Classify this compound: CCCCOc1cc(NC(=S)NC(C)c2ccc(C#N)cc2)ccc1NC(=O)c1ccccc1F (stereo not shown)
output: middle band

input: Classify this compound: `COc1cc(OC)c(NC(=S)Nc2ccc(NC(=O)c3ccccc3F)c(C(=O)O)c2)cc1Cl`
output: high band

input: Classify this compound: CCOc1cc(NC(=S)NC(C)c2ccc(F)cc2)ccc1NC(=O)c1ccccc1F (stereo not shown)
output: high band

input: Classify this compound: `C[C@H](NC(=S)Nc1ccc(NC(=O)c2ccccc2F)c(C#N)c1)c1ccc(Br)cc1`
output: high band

input: Classify this compound: CC(NC(=S)Nc1ccc(NC(=O)c2ccccc2F)c(C#N)c1)c1ccc(F)cc1 (stereo not shown)
output: high band

input: Classify this compound: CC(NC(=S)Nc1ccc(NC(=O)c2ccccc2F)c(C(F)(F)F)c1)c1ccc(C#N)cc1 (stereo not shown)
output: middle band

input: Classify this compound: `C[C@@H](NC(=S)Nc1ccc(NC(=O)c2ccccc2F)c(C#N)c1)c1ccc(Br)cc1`
output: low band

input: Classify this compound: CC(NC(=S)Nc1ccc(NC(=O)c2ccccc2F)c(Cl)c1)c1ccc(C#N)cc1 (stereo not shown)
output: low band

input: Classify this compound: `COc1cc(OC)c(NC(=S)Nc2ccc(NC(=O)c3ccccc3F)c(C#N)c2)cc1Cl`
output: high band

input: Classify this compound: Cc1cc(NC(=S)NC(C)c2cc3ccccc3o2)ccc1NC(=O)c1ccccc1F (stereo not shown)
output: middle band

Where do these numbers come from? They come from patent EP1137632B1.
